target: NK-1 receptor (Homo sapiens, UniProt P25103); construct: endogenous in cells; test: NK-1 Receptor Binding Assay (125I-labeled substance P, IM9 cells); conditions: inhibits fifty percent of binding of 125I-substance P to IM9 cells
Sequence (P25103 whole entry): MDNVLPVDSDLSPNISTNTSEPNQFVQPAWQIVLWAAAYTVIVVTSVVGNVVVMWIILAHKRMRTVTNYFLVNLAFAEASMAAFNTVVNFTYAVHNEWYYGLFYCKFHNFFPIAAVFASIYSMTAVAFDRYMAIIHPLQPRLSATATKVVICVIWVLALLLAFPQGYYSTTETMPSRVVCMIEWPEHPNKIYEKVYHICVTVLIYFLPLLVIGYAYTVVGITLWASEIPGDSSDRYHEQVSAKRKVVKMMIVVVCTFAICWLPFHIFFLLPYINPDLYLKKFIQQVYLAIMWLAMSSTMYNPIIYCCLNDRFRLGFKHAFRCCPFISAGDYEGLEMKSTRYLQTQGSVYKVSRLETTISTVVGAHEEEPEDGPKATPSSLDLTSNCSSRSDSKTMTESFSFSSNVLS
pIC50: −log10 of the molar value.
outcomeMeasure: pIC50

- COc1ccccc1CN(CC(Cc1cn(C)c2ccccc12)NC(=O)CN1CCN(c2ccccc2)CC1)C(C)=O (centres unmarked) [Example 113]: 8.11
- COc1ccccc1CN(CC(Cc1csc2ccccc12)NC(=O)CN1CCC(N2CCCCC2)CC1)C(C)=O (centres unmarked) [Example 149]: 8.92

(P) COc1ccccc1CN(CC(Cc1c[nH]c2c(C)cccc12)NC(=O)CN1CCC(N2CCCCC2)CC1)C(C)=O (centres unmarked) [Example 128]
(Q) COc1ccccc1CN(CC(Cc1cccc2ccccc12)NC(=O)CN1CCN(c2ccccc2)CC1)C(C)=O (centres unmarked) [Example 141]
(R) COc1ccccc1CN(CC(Cc1c[nH]c2ccccc12)NC(=O)CN1CCOCC1)C(C)=O (centres unmarked) [Example 62]
QUERY: Put the items in order so that reported pIC50 rises from first to last. List each label, following the requested order.
RESULT: R, Q, P
